Species: Rattus norvegicus
procedure.text: Open TG-GATES - Regimen: Single
Assay type: toxicity, organism-based, Sprague-Dawley
Set-up: regimen Single, gender Male, age 6 weeks
experimental.parameters: in vivo, po, 0 mg/kg, 6 h, tissue Plasma, route gavage, dose level Control
assay.readout: Ca (mg/dL)
Express it in mg/dL; write the number only.

Task: Which value of Ca has been reported for "COC1=CC(=O)C[C@@H](C)[C@]12Oc1c(Cl)c(OC)cc(OC)c1C2=O" in the records?
Output: 10.7

Task: Which value of Ca has been reported for CCCNC(=O)NS(=O)(=O)c1ccc(Cl)cc1 [CHLORPROPAMIDE] in the records?
Output: 10.7

Task: Which value of Ca has been reported for CCOC(=O)CCC(=O)O[C@H]1[C@H](O[C@@H]2[C@@H](C)[C@H](O[C@H]3C[C@@](C)(OC)[C@@H](O)[C@H](C)O3)[C@@H](C)C(=O)O[C@H](CC)[C@@](C)(O)[C@H](O)[C@@H](C)C(=O)[C@H](C)C[C@@]2(C)O)O[C@H](C)C[C@@H]1N(C)C [ERYTHROMYCIN ETHYLSUCCINATE] in the records?
Output: 10.3

Task: Which value of Ca has been reported for COc1ccc2[nH]c([S+]([O-])Cc3ncc(C)c(OC)c3C)nc2c1 (stereo not drawn) in the records?
Output: 10.7

Task: Which value of Ca has been reported for CCOc1ccc(NC(=O)CC(C)O)cc1 (stereo not drawn) in the records?
Output: 10.8

Others:
Task: Which value of Ca has been reported for "NC(N)=Nc1nc(CSCCC(N)=NS(N)(=O)=O)cs1" in the records?
Output: 10.7

Task: Which value of Ca has been reported for "O=C(CCCN1CCC(O)(c2ccc(Cl)cc2)CC1)c1ccc(F)cc1" in the records?
Output: 10.7

Task: Which value of Ca has been reported for "CN(C)CCCN1c2ccccc2CCc2ccc(Cl)cc21" in the records?
Output: 10.8

---

Species on record: Rattus norvegicus
procedure.text: Open TG-GATES - Regimen: Daily Repeat
Type: toxicity, organism-based, Sprague-Dawley
Set-up: regimen Daily Repeat, gender Male, age 6 weeks
experimental.parameters: in vivo, po, 300 mg/kg, […], tissue Plasma, route gavage, dose level Middle, time 14 day
assay.readout: BUN (mg/dL)
Express it in mg/dL; write the number only.

Task: Which value of BUN has been reported for CCOC(=O)CCC(=O)O[C@H]1[C@H](O[C@@H]2[C@@H](C)[C@H](O[C@H]3C[C@@](C)(OC)[C@@H](O)[C@H](C)O3)[C@@H](C)C(=O)O[C@H](CC)[C@@](C)(O)[C@H](O)[C@@H](C)C(=O)[C@H](C)C[C@@]2(C)O)O[C@H](C)C[C@@H]1N(C)C [ERYTHROMYCIN ETHYLSUCCINATE] in the records?
Output: 19.4

Task: Which value of BUN has been reported for CCOc1ccc(NC(=O)CC(C)O)cc1 (stereo not given) in the records?
Output: 15

Task: Which value of BUN has been reported for COc1ccc2[nH]c([S+]([O-])Cc3ncc(C)c(OC)c3C)nc2c1 (stereo not given) in the records?
Output: 17.2

Others:
Task: Which value of BUN has been reported for "COC1=CC(=O)C[C@@H](C)[C@]12Oc1c(Cl)c(OC)cc(OC)c1C2=O" in the records?
Output: 14.8

Task: Which value of BUN has been reported for "NC(N)=Nc1nc(CSCCC(N)=NS(N)(=O)=O)cs1" in the records?
Output: 16

---

Organism: Rattus norvegicus
procedure.text: Open TG-GATES - Regimen: Single
Assay type: toxicity, organism-based, Sprague-Dawley
Parameters: regimen Single, gender Male, age 6 weeks
experimental.parameters: in vivo, po, 0 mg/kg, 6 h, tissue Blood, route gavage, dose level Control
# reported Lym; entries follow

These recorded examples may help you get a feel for the data.
Task: Which value of Lym has been reported for "COc1cc2c(c(OC)c1OC)-c1ccc(OC)c(=O)cc1[C@@H](NC(C)=O)CC2" in the records?
Output: 82.2%

Task: Which value of Lym has been reported for COc1ccc2[nH]c([S+]([O-])Cc3ncc(C)c(OC)c3C)nc2c1 (configuration not stated) in the records?
Output: 72.4%

Task: Which value of Lym has been reported for CCCNC(=O)NS(=O)(=O)c1ccc(Cl)cc1 [CHLORPROPAMIDE] in the records?
Output: 71.2%

Next up:
Task: Which value of Lym has been reported for "C[C@@H]1C[C@H]2[C@@H]3CCC4=CC(=O)C=C[C@]4(C)[C@@]3(F)[C@@H](O)C[C@]2(C)[C@@]1(O)C(=O)CO" in the records?
Output: 80.6%

---

Species on record: Rattus norvegicus
procedure.text: Open TG-GATES - Regimen: Single
Type: toxicity, organism-based, Sprague-Dawley
Parameters: regimen Single, gender Male, age 6 weeks
experimental.parameters: in vivo, po, 100 mg/kg, 3 h, tissue Blood, route gavage, dose level High
# reported Plat; entries follow
Express it in x10_4/uL; write the number only.

These recorded examples may help you get a feel for the data.
Task: Which value of Plat has been reported for CN(C)CCCN1c2ccccc2CCc2ccc(Cl)cc21 [CLOMIPRAMINE] in the records?
Output: 125.6

Task: Which value of Plat has been reported for "CN(C)CCN(Cc1cccs1)c1ccccn1" in the records?
Output: 121.5

Task: Which value of Plat has been reported for CC1=C(/C=C/C(C)=C/C=C/C(C)=C/CO)C(C)(C)CCC1 [RETINOL] in the records?
Output: 117.7

Next up:
Task: Which value of Plat has been reported for CN(C)CCCN1c2ccccc2CCc2ccccc21 [IMIPRAMINE] in the records?
Output: 110.1

---

Organism: Rattus norvegicus
procedure.text: Open TG-GATES - Regimen: Daily Repeat
Type: toxicity, organism-based, Sprague-Dawley
Parameters: regimen Daily Repeat, gender Male, age 6 weeks
experimental.parameters: in vivo, po, 1000 mg/kg, […], tissue Plasma, route gavage, dose level High, time 7 day
Note to self: values exactly at 60 mg/dL are True. So TG at or above 60 mg/dL is True, below is False.

The following compounds have reported results that may help.
Task: API: above_or_equal(metric=TG, cutoff=60 mg/dL) for item "COC1=CC(=O)C[C@@H](C)[C@]12Oc1c(Cl)c(OC)cc(OC)c1C2=O"
Output: False

Task: API: above_or_equal(metric=TG, cutoff=60 mg/dL) for item CCOc1ccc(NC(=O)CC(C)O)cc1 (stereo unspecified)
Output: True

Task: API: above_or_equal(metric=TG, cutoff=60 mg/dL) for item CCOC(=O)CCC(=O)O[C@H]1[C@H](O[C@@H]2[C@@H](C)[C@H](O[C@H]3C[C@@](C)(OC)[C@@H](O)[C@H](C)O3)[C@@H](C)C(=O)O[C@H](CC)[C@@](C)(O)[C@H](O)[C@@H](C)C(=O)[C@H](C)C[C@@]2(C)O)O[C@H](C)C[C@@H]1N(C)C [ERYTHROMYCIN ETHYLSUCCINATE]
Output: True

Task: API: above_or_equal(metric=TG, cutoff=60 mg/dL) for item COc1ccc2[nH]c([S+]([O-])Cc3ncc(C)c(OC)c3C)nc2c1 (stereo unspecified)
Output: True

Task: API: above_or_equal(metric=TG, cutoff=60 mg/dL) for item CC(C)OC(=O)C(C)(C)Oc1ccc(C(=O)c2ccc(Cl)cc2)cc1 [FENOFIBRATE]
Output: False

Turning now to a further compound:
Task: API: above_or_equal(metric=TG, cutoff=60 mg/dL) for item "NC(N)=Nc1nc(CSCCC(N)=NS(N)(=O)=O)cs1"
Output: True

---

# reported gamma-GTP; entries follow
Species on record: Rattus norvegicus
procedure.text: Open TG-GATES - Regimen: Single
Format: toxicity, organism-based, Sprague-Dawley
Parameters: regimen Single, gender Male, age 6 weeks
experimental.parameters: in vivo, po, 10 mg/kg, 24 h, tissue Plasma, route gavage, dose level Low
Express it in IU/L; write the number only.

These recorded examples may help you get a feel for the data.
Task: Which value of gamma-GTP has been reported for "CN(C)CCCN1c2ccccc2CCc2ccccc21" in the records?
Output: 1

Task: Which value of gamma-GTP has been reported for "CC1=C(/C=C/C(C)=C/C=C/C(C)=C/CO)C(C)(C)CCC1" in the records?
Output: 1.6

Task: Which value of gamma-GTP has been reported for "CN(C)CCN(Cc1cccs1)c1ccccn1" in the records?
Output: 1

Task: Which value of gamma-GTP has been reported for CC(C)OC(=O)C(C)(C)Oc1ccc(C(=O)c2ccc(Cl)cc2)cc1 [FENOFIBRATE] in the records?
Output: 1.2

Next up:
Task: Which value of gamma-GTP has been reported for "CN(C)CCCN1c2ccccc2CCc2ccc(Cl)cc21" in the records?
Output: 1
